# System: IGROV1 ovarian
# measurement.description: NCI-60 one-dose screen, 48 h
# reported.conditions: 10 µM unless noted
About 83,000 compounds went through this panel and 20% of them were active in at least one assay; those are over-represented in the sample as a whole. Activity calls are given as the source filed them. The calls were made as follows: active = growth percent below 10; inactive = the rest.
Allowed answers: active, inactive

What classification did O=C1/C(=C/c2ccc([N+](=O)[O-])cc2)COc2ccc(O)c(O)c21 end up with in this test? active

What classification did COc1ccc(/C=C(\C#N)n2nnc3cc(F)c(F)cc32)c(OC)c1OC end up with in this test? inactive

What classification did CCCCC1COc2cccc3c(SCC(=O)N(C)c4cccc(Cl)c4)cc[n+]1c23 (stereo unspecified) end up with in this test? inactive

What classification did O=C(Nc1ccccc1)c1sc(-c2cccc(C(F)(F)F)c2)cc1O end up with in this test? inactive

What classification did Cc1ccc(NSc2ccccc2[N+](=O)[O-])cc1 end up with in this test? inactive

What classification did CCCN1CCN(c2ccc3nc(-c4ccc5nc(-c6ccc(OCC)c(OCC)c6)[nH]c5c4)[nH]c3c2)CC1 end up with in this test? active

----------
# System: SNB-19 CNS
# measurement.description: NCI-60 one-dose screen, 48 h
# reported.conditions: 10 µM unless noted
The panel holds about 83,000 compounds, 20% with a hit somewhere; the sample as a whole holds those more often. Calls of active or inactive are those of the source. The calls were made as follows: active = growth percent below 10; inactive = the rest.
Allowed answers: yes = active, no = inactive

What classification did N[C@H]1CCC[C@@H]1NCCCCN1C(=O)c2cccc3cccc(c23)C1=O end up with in this test? no

What classification did CCCc1nc2ccccn2c1Nc1ccc(C(=O)NO)cc1 end up with in this test? no

What classification did O=C(Oc1ccc([N+](=O)[O-])cc1)c1ccc(CBr)cc1 end up with in this test? no

What classification did CCO/C=N/C1=C(C#N)C(c2ccc(OC)cc2)c2c(c3ccccc3n(C)c2=O)O1 (centres undefined) end up with in this test? no

What classification did O=C(O)c1ccccc1C(=O)Nc1ccc(Cl)cc1 end up with in this test? no

What classification did C=CCOc1cccc(/C=C2\SC(=Nc3ccc(O)cc3)NC2=O)c1 end up with in this test? no

What classification did CN(C)c1ccc2cc(-c3ccc(Cl)c(Cl)c3)c(N)nc2c1 end up with in this test? no

What classification did CN(C)c1ccc2cc(-c3ccccc3F)c(N)nc2c1 end up with in this test? no

What classification did COc1cc(/C=C/C(=O)c2cccc(-n3cc(-c4ccc(Cl)cc4)[nH]c3=O)c2)cc(OC)c1OC end up with in this test? no

What classification did O=C1C2=C(CCN(Cc3ccccc3)C2)N2CCN=C2N1Cc1ccc(F)cc1F end up with in this test? no

What classification did CC(=O)c1cc2c(o1)C(=O)c1ccccc1C2=O end up with in this test? yes

What classification did CN(C)CCN1C(=O)c2cccc3c(-c4ccc(-c5nc6c7ccccc7c7ccccc7c6[nH]5)cc4)ccc(c23)C1=O end up with in this test? no

What classification did O=c1cc(-c2ccc(OCc3ccccc3)cc2)oc2c(I)c(OCc3ccccc3)cc(OCc3ccccc3)c12 end up with in this test? no

What classification did C[C@@H]1CC[C@@H]2[C@@H]1[C@H](OC(=O)/C=C/c1ccccc1)[C@]1(CCCOCCOCCOCCOC(=O)CCCC[C@@H]3SC[C@@H]4NC(=O)N[C@@H]43)C[C@@H](OC(=O)CO)[C@@]2(C)O1 end up with in this test? no

What classification did CCOc1ccc(-c2nc3ccc(-c4nc5ccc(N6CCN(C)CC6)cc5[nH]4)cc3[nH]2)cc1OCC end up with in this test? yes

What classification did Cc1ccc(Nc2ccc(Nc3ccc(C)cc3S(=O)(=O)O)c3c2C(=O)c2ccccc2C3=O)c(S(=O)(=O)O)c1 end up with in this test? no

What classification did Cc1ccc(/C=C(\C#N)n2nnc3cc(Cl)c(Cl)cc32)cc1 end up with in this test? no

What classification did N#Cc1cnn2c(-c3ccc(Cl)cc3)nc(NC3CC3)nc12 end up with in this test? no

What classification did O=c1oc2ccc(Cl)cc2cc1-c1cs/c(=N/N=C\c2ccc(Cl)cc2)n1/N=C/c1ccc(Cl)cc1 end up with in this test? no

What classification did Cn1cc(-c2ccc3ncc(-c4ccc(CC(=O)Nc5cc(C(C)(C)C)nn5C)cc4)cc3c2)cn1 end up with in this test? no

What classification did CN(C)CCOC(=O)Nc1ccc(Cl)cc1 end up with in this test? no

What classification did Fc1ccc(Nc2ccc3cc(OCCCN4CCOCC4)ccc3n2)cc1F end up with in this test? no

What classification did O=C1NN(C(=O)c2ccc(O)cc2)C(c2ccccc2)=N/C1=C\c1cn(-c2ccccc2)nc1-c1ccccc1 end up with in this test? no

What classification did N#Cc1c(-c2ccc(C(F)(F)F)cc2)cc(N2CC(O)C2)n2c1nc1ccccc12 end up with in this test? no

What classification did COc1ccc2cc(-c3ccc(C(=O)NN)c(C)n3)ccc2c1 end up with in this test? no

What classification did Nc1c(-c2nc3ccc(Br)cc3c(=O)[nH]2)nnn1-c1ccccc1 end up with in this test? no

What classification did N=C(N)c1ccc(-c2ccc(-c3ccc(Cl)cn3)s2)cc1 end up with in this test? no

What classification did COc1ccccc1C(=O)NC(=S)Nc1ccc(-c2nc3ccccc3[nH]2)cc1 end up with in this test? no

What classification did Cc1cc(=O)[nH]c(N/N=C/c2cc(Br)ccc2O)n1 end up with in this test? no

What classification did O=C1N(c2ccccc2)C(=S)N[C@]12[C@H](c1ccccc1)C1CCCN1[C@]21C(=O)NC2C=CC(Cl)=C[C@H]21 (some centres undefined) end up with in this test? no

What classification did C=C(C)[C@@H]1CC[C@]2(CNCCO)CC[C@]3(C)[C@H](CC[C@@H]4[C@@]5(C)CCC(N)[C@@](C)(CO)[C@@H]5CC[C@]43C)[C@@H]12 (some centres undefined) end up with in this test? no

What classification did CC(C)(C)c1ccc(C(=O)Nc2sc3c(c2C(N)=O)CCC(=O)C3)cc1 end up with in this test? no

What classification did COc1ccc(-c2c(N)n[nH]c2-c2ccccc2O)cc1OC end up with in this test? no

What classification did N#Cc1c(N)n2c(nc1=Nc1ccc(Cl)cc1)sc1cc(Cl)ccc12 end up with in this test? no

What classification did O=C(Nc1ccccc1Cl)OCCN1CCOCC1 end up with in this test? no

What classification did CCCCS(=O)(=O)Oc1ccc(-c2nc(C)c(C(=O)OCC)s2)cc1C=O end up with in this test? no

What classification did NS(=O)(=O)Oc1ccc(-c2sc3cc(O)ccc3c2C(=O)c2ccc(OCCN3CCCCC3)cc2)cc1 end up with in this test? no

What classification did CCOC(=O)c1c(C)nc2c(c1N)/C(=C/c1cc(OC)c(OC)c(OC)c1)C(=O)N2c1ccc(OC)cc1 end up with in this test? no

What classification did O=C1Nc2ccccc2/C1=N/N=C/c1ccc(OC2OC(CO)C(O)C(O)C2O)cc1 (centres undefined) end up with in this test? no
